# assay-info: yeast display, Sf9 membrane polyspecificity reagent, FACS + sequencing; frameworks hold sequencing errors
property-name: polyreactivity (PSR sort gate)

Examples from the recorded data:
sequence-entry: QVQLVESGGGLVQAGGSLRLSCAASGFIFILNAMGWYRQAPGKERELVAGISISGGSTYYADSVKGRFTISRDNAKNTVYLQMNSLKPEDTAVYYCAAPDGDTRVSDQAYDYWGQGTQVTVSS
property-name: polyreactivity (PSR sort gate)
observed: low polyreactivity

sequence-entry: QVQLVESGGGLVQAGGSLRLSCSASGRTFHYYAMGWYRQAPGKERELVAVIRYSGGRTYYADSVKGRFTISRDNAKNTVYLQMNSLKPEDTAVYYCNKGRWRTDQPVYLIAFDYWGQGTQVTVTS
property-name: polyreactivity (PSR sort gate)
observed: low polyreactivity

sequence-entry: QVQLVESGGGLVQAGGSLRLSCAASGFIFKKYVMGWYRQAPGKERELVAGISRSGGSTYYADSVKGRFTISRDNAKNTVYLQMNSLKPEDTAVYYCAAYIYQSPTRGGGYWGQGTQVTVSS
property-name: polyreactivity (PSR sort gate)
observed: high polyreactivity

sequence-entry: QVQLVESGGGLVQAGGSLRLICAASGRTIDHYAMGWYRQAPGKERELVAAISTTGGSTYYADSVKGRFTISRDNAKNTVYLQMNSLKPEDTAVYYCAARGLRTGGYWGQGTQVTVSS
property-name: polyreactivity (PSR sort gate)
observed: high polyreactivity

sequence-entry: QVQLVESGGGLVQAGGSLRLSCAASGLIFYKYAKGWYRQAPGKERELVAAISRGDNTYYADSVKGRFTISRDNAKNTVYLQMNSLKPEDTAVYYCAAYRWIYQSQYQGYWLDYWGQGTQVTVSS
property-name: polyreactivity (PSR sort gate)
observed: high polyreactivity

Go through the list and state polyreactivity (PSR sort gate) for each entry.
1. QVQLVESGGGLVQAGGSLRLSCAASGRTFYYYAMGWYRQAPGKEREFVASITWRGGRTYYADSVKGRFTISRDNAKNTVYLQMNSLKPEDTAVYYCAAESYHPEYYYWGQGTQVTVSS
2. QVQLVESGGGLVQAGGSLRLSCAASGRIFGNYAMGWYRPATGKESELVAAISGGGSTYYADSVKGRFTISRDNAKNTVYLQMNSVKPEDTAVYYCAARFMWSVFGRKGGYWGQGTHVTVSS
3. QVQLVESGGGLVQAGGSLRLSCAASGYTFGFYAMGWYRQAPGKERELVAAISRSGGRTYYADSVKGRFTISRDNAKNTVYLQMNSLKPEDTAVYYCAAYQYGMDYWGQGTQVTVSS
4. QVQLVESGGGLVQAGGSLRLSCAASGRIFSPYAMGWYRQAPGKERELVAAITRNGGRTYYADSVKGRFTISRDNAKNTVYLQMNSLKPEDTAVYYCAAAKQSGNDYWGQGTQVTVSS
5. QVQLVESGGGLVQAGGSLRLSCAASGNIFAYYAMGWYRQAPGKEREFVAAIRSSGVSTYYADSVKGRFTISRDNAKNTVYLQMNSLKPEDTAVYYCAADSITGGWLIVSPPFNYTYDYWGQGTQVTVSS
6. QVQLVESGGGLVQAGGSLRLSCAASGSTSPGYAMGWYRQAPGKERELVAAITWNGGSTYYADSVKGRFTISRDNAKNTVYLQMNSLKPEDTAVYYCNKLSGYGWRSYGYWGQGTQVTVSS

*A*
high polyreactivity
low polyreactivity
high polyreactivity
low polyreactivity
low polyreactivity
high polyreactivity
